target: CB1-receptor (UniProt P20272); test: binding of the pyrazoline compounds to CB1-receptors (Pharmacological Methods, Part I); design: other: 10^−7 M; other: 10^−8 M; species or system human or rat; conditions: 10^−7 M
Label Yes when Inhibition >= 60%; otherwise No.

Completed entries (count: 2):
CC1C(C(=O)O)=NN(c2ccc(Cl)cc2Cl)C1c1ccccc1 (stereo not shown); No
CC[C@@H]1C(C(=O)NN2CCCCC2)=NN(c2ccc(Cl)cc2Cl)[C@@H]1c1ccc(Br)cc1.Cl (relative stereo); No

Turning now to a further compound:
QUERY: In plain terms: is recorded Inhibition at least 60% for C[C@H]1C(C(=O)NC2CCCCCC2)=NN(c2ccc(Cl)cc2Cl)[C@H]1c1ccc(F)cc1 (relative stereo) ?
RESULT: No

Values from patent US20070073056A1
